- Test system: Candida
- Assay: Antimycotic in vivo activity (oral) in mouse candidosis
- Parameters: species or system mouse (SPF-CF1)
- Measurement Setup: 10 to 100 mg/kg, 6th day p.i.
- Protocol: Mice of the SPF-CF1 type were infected intravenously with 1-2×10^6 exponentially growing Candida cells which are suspended in physiological saline solution. One hour before and seven hours after infection, the animals are treated orally in each case with 10 to 100 mg/kg of body weight of the preparation. Untreated animals died on the 3rd to 6th day post-infection. The survival rate on the 6th day post-infection was about 5% in untreated control animals.
Parameter: action in mouse candidosis, in words

Examples from the recorded data:
Compound	action in mouse candidosis, in words
OC(Cn1cncn1)(c1ccc(Cl)cc1)C1(n2cnc(Cl)n2)CC1 (centres unmarked)	good to very good action
OC(Cn1cncn1)(c1ccc(F)c(F)c1)C1(n2cnc(Cl)n2)CC1 (centres unmarked)	good to very good action
OC(Cn1cncn1)(c1ccc(F)cc1)C1(n2cnc(Cl)n2)CC1 (centres unmarked)	good to very good action
OC(Cn1cncn1)(c1ccccc1)C1(n2cnc(Cl)n2)CC1 (centres unmarked)	good to very good action

Item under review: OC(Cn1cncn1)(c1ccc(F)cc1F)C1(n2cnc(Cl)n2)CC1 (centres unmarked) . Reported action in mouse candidosis, in words?
good to very good action

* * *

- System: Candida albicans
Parameter: MIC (mg/L)
Number in mg/L, nothing else.

Molecule	Display Unit	Result Number
OC(Cn1cncn1)(c1ccc(F)cc1)C1(n2cnc(Cl)n2)CC1 (stereo not drawn)	mg/L	32

Item under review: OC(Cn1cncn1)(c1ccc(Cl)cc1)C1(n2cnc(Cl)n2)CC1 (stereo not drawn) . Reported MIC?
8

Try OC(Cn1cncn1)(Cn1cncn1)c1ccccc1 [(B), reference compound] next.
64

Try OC(Cn1cncn1)(c1ccc(-c2ccccc2)cc1)C1(n2cnc(Cl)n2)CC1 (stereo not drawn) next.
32

Try OC(Cn1cncn1)(c1ccc(F)cc1F)C1(n2cnc(Cl)n2)CC1 (stereo not drawn) next.
32

Try OC(Cn1cncn1)(c1ccc(F)c(F)c1)C1(n2cnc(Cl)n2)CC1 (stereo not drawn) next.
16

Try Cc1ccc(C(O)(Cn2cncn2)C2(n3cnc(Cl)n3)CC2)cc1 (stereo not drawn) next.
16

Try OC(Cn1cncn1)(c1ccccc1)C1(n2cnc(Cl)n2)CC1 (stereo not drawn) next.
32
